Target or system catalytic domain of MMP-13 enzyme (Homo sapiens): recorded IC50 listed per item.

# count of solved cases: 5
O=C(O)CCC(=O)NCc1ccc2nc(C(=O)NCc3ccc4c(c3)NC(=O)CO4)[nH]c(=O)c2c1 :: < 100 nM
O=C(Cc1csc2nc(C(=O)NCc3ccc4c(c3)NC(=O)CO4)[nH]c(=O)c12)NCS(=O)(=O)O :: < 100 nM
O=C1COc2ccc(CNC(=O)c3nc4c(Br)cc(F)cc4c(=O)[nH]3)cc2N1 :: < 100 nM
Cc1c(Br)sc2nc(C(=O)NCc3ccc4c(c3)NC(=O)CO4)[nH]c(=O)c12 :: < 100 nM
O=C1COc2ccc(CNC(=O)c3nc4nonc4c(=O)[nH]3)cc2N1 :: 100 to 20000 nM

Form field IC50 for item CCc1ccc2nc(C(=O)NCc3ccc4c(c3)NC(=O)CO4)[nH]c(=O)c2c1 on catalytic domain of MMP-13 enzyme (Homo sapiens): < 100 nM
